Reference for the values: patent US20100120715A1

# Target Or System: Class A ESBL CTXM-15 (Escherichia coli)
# Sequence (Q9EXV5 entry or part of it): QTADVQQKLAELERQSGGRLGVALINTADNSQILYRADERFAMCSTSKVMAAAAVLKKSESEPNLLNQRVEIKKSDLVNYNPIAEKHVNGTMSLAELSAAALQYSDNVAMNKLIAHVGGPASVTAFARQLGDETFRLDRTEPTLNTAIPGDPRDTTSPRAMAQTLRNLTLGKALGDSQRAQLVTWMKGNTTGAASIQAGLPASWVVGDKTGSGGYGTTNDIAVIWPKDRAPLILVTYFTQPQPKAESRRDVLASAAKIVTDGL
# Procedure Text: β-lactamase enzyme inhibition (nitrocefin hydrolysis), CTXM-15
# Protocol Conditions: purified enzyme; nitrocefin 100 μM, PBS pH 7.0; read-out: CTXM-15 IC50 Range
pIC50: −log10 of the molar value.
Can you tell me pIC50 for the items I'm about to list?

Field request: pIC50 | item: COc1ccc(C(=O)N[C@@H](Cc2cccc(C(=O)O)c2O)B(O)O)cc1
> 8.00

Record request: pIC50 value, item O=C(O)c1cccc(C[C@H](NC(=O)c2cccc3ccccc23)B(O)O)c1O
> 8.00

Recorded pIC50 of O=C(N[C@@H](Cc1cccc(C(=O)O)c1O)B(O)O)c1ccccc1 , please.
7.00 to 8.00

Recorded pIC50 of CS(=O)(=O)c1ccc(CC(=O)N[C@@H](Cc2cccc(C(=O)O)c2O)B(O)O)cc1 , please.
> 8.00

So what's the measured pIC50 for this one? CCC(=O)N[C@@H](Cc1cccc(C(=O)O)c1O)B(O)O
7.00 to 8.00

Any idea what its pIC50 is? The molecule is Cl.NCCOc1cccc(CC(=O)N[C@@H](Cc2cccc(C(=O)O)c2O)B(O)O)c1 [Example 4, hydrochloride]
> 8.00

Give the measured pIC50 of COc1cccc(C(=O)N[C@@H](Cc2cccc(C(=O)O)c2O)B(O)O)c1 .
> 8.00

---

Task for the reader: assign each of the following molecules its reported IC50.

Report IC50 for O=C(O)c1cccc(C[C@H](NC(=O)c2cccc3ccccc23)B(O)O)c1O tested on Class C P99 AmpC (Enterobacter cloacae).
Sequence (P05364 21-381): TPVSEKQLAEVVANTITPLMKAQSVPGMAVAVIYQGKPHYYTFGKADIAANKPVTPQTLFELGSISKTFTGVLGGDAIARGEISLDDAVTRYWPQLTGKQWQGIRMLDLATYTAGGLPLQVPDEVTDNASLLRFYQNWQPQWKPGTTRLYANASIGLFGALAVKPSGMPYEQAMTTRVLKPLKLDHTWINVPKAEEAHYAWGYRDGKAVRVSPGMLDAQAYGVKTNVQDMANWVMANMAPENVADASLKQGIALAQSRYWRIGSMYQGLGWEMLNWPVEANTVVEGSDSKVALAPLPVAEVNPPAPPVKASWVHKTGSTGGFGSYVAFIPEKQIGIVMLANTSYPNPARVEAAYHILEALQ
< 10 nM

Please provide the recorded IC50 for COc1ccc(C(=O)N[C@@H](Cc2cccc(C(=O)O)c2O)B(O)O)cc1 , tested on Class C P99 AmpC (Enterobacter cloacae).
< 10 nM

Give the reported IC50 for O=C(O)c1cccc(C[C@H](NC(=O)[C@@H]2CCCN2)B(O)O)c1O.O=CO (system: Class C P99 AmpC (Enterobacter cloacae)).
10 to 100 nM

Fill in the recorded IC50 for this molecule, with Class C P99 AmpC (Enterobacter cloacae) as test system: Cn1nc(-c2ccccc2)cc1C(=O)N[C@@H](Cc1cccc(C(=O)O)c1O)B(O)O
< 10 nM

Quick check: IC50 on Class C P99 AmpC (Enterobacter cloacae), item N[C@H](C(=O)N[C@@H](Cc1cccc(C(=O)O)c1O)B(O)O)c1ccccc1.O=CO [Example 12, formate salt] ?
100 to 1000 nM

# value lookup — system Class C P99 AmpC (Enterobacter cloacae), readout IC50, item CC(=O)Nc1nc(CC(=O)N[C@@H](Cc2cccc(C(=O)O)c2O)B(O)O)cs1
< 10 nM

Any idea what IC50 came out for O=C(N[C@@H](Cc1cccc(C(=O)O)c1O)B(O)O)c1cnccn1 on Class C P99 AmpC (Enterobacter cloacae)?
10 to 100 nM

Under Class C P99 AmpC (Enterobacter cloacae): IC50 value of Cc1ccccc1C(=O)N[C@@H](Cc1cccc(C(=O)O)c1O)B(O)O ?
< 10 nM

Hello, I am looking for reported IC50 with Class C P99 AmpC (Enterobacter cloacae) for O=C(Cc1cccnc1)N[C@@H](Cc1cccc(C(=O)O)c1O)B(O)O.O=CO [Example 59, formate salt] . Could you help?
< 10 nM

For Class C P99 AmpC (Enterobacter cloacae), provide IC50 of CS(=O)(=O)c1ccc(CC(=O)N[C@@H](Cc2cccc(C(=O)O)c2O)B(O)O)cc1 please.
< 10 nM

Please state recorded IC50 (tested on Class C P99 AmpC (Enterobacter cloacae)) of O=C(Cc1cccs1)N[C@@H](Cc1ccc(C(=O)O)cc1O)B(O)O
100 to 1000 nM

// fetch Class C P99 AmpC (Enterobacter cloacae) IC50 for CC(=O)NCC(=O)N[C@@H](Cc1cccc(C(=O)O)c1O)B(O)O
10 to 100 nM

Lab note: need IC50 with Class C P99 AmpC (Enterobacter cloacae) for entry CCCCCC(=O)N[C@@H](Cc1cccc(C(=O)O)c1O)B(O)O , please look it up.
< 10 nM

Observed IC50 on Class C P99 AmpC (Enterobacter cloacae) for O=C(Cc1cccc(O)c1)N[C@@H](Cc1cccc(C(=O)O)c1O)B(O)O , please.
< 10 nM

Short answer please: IC50, Class C P99 AmpC (Enterobacter cloacae), entry CC(=O)N[C@@H](Cc1cccc(C(=O)O)c1O)B(O)O
10 to 100 nM

Lab note: need IC50 with Class C P99 AmpC (Enterobacter cloacae) for entry NC(=O)COc1cccc(CC(=O)N[C@@H](Cc2cccc(C(=O)O)c2O)B(O)O)c1 , please look it up.
< 10 nM

Request body: readout IC50, system Class C P99 AmpC (Enterobacter cloacae), query O=C(O)COc1cccc(CC(=O)N[C@@H](Cc2cccc(C(=O)O)c2O)B(O)O)c1 . Return the value.
< 10 nM

Write down the reported IC50 of COc1ccccc1C(=O)N[C@@H](Cc1cccc(C(=O)O)c1O)B(O)O , test system: Class C P99 AmpC (Enterobacter cloacae).
< 10 nM

Query IC50 on Class C P99 AmpC (Enterobacter cloacae) for O=C(O)c1cccc(C[C@H](NC(=O)C2CC2)B(O)O)c1O
< 10 nM

What reported IC50 corresponds to Cn1ccc(C(=O)N[C@@H](Cc2cccc(C(=O)O)c2O)B(O)O)n1 on Class C P99 AmpC (Enterobacter cloacae)?
< 10 nM

What IC50 appears in the records for this molecule with Class C P99 AmpC (Enterobacter cloacae)? Cl.NCCOc1cccc(CC(=O)N[C@@H](Cc2cccc(C(=O)O)c2O)B(O)O)c1 [Example 4, hydrochloride]
< 10 nM

Fill in the recorded IC50 for this molecule, with Class C P99 AmpC (Enterobacter cloacae) as test system: Cl.O=C(Cc1ccncc1)N[C@@H](Cc1cccc(C(=O)O)c1O)B(O)O [Example 52, hydrochloride]
< 10 nM

Write down the reported IC50 of O=C(N[C@@H](Cc1cccc(C(=O)O)c1O)B(O)O)c1ccc(F)cc1 , test system: Class C P99 AmpC (Enterobacter cloacae).
< 10 nM

Hi! What's the reported IC50 for O=C(N[C@@H](Cc1cccc(C(=O)O)c1O)B(O)O)c1ccncc1 on Class C P99 AmpC (Enterobacter cloacae)?
< 10 nM

Give Class C P99 AmpC (Enterobacter cloacae) IC50 for O=C(N[C@@H](Cc1cccc(C(=O)O)c1O)B(O)O)c1cccc(O)c1
< 10 nM

Lookup: IC50 / Class C P99 AmpC (Enterobacter cloacae) / O=C(Cc1ccccc1)N[C@@H](Cc1cccc(C(=O)O)c1O)B(O)O
< 10 nM

Give the reported IC50 for O=C(CCC(=O)c1cccs1)N[C@@H](Cc1cccc(C(=O)O)c1O)B(O)O (system: Class C P99 AmpC (Enterobacter cloacae)).
< 10 nM

# returns recorded IC50 (system: Class C P99 AmpC (Enterobacter cloacae)) for O=C(N[C@@H](Cc1cccc(C(=O)O)c1O)B(O)O)c1ccc(N2CCOCC2)nc1
10 to 100 nM

Hi! What's the reported IC50 for O=C(COCc1ccccc1)N[C@@H](Cc1cccc(C(=O)O)c1O)B(O)O on Class C P99 AmpC (Enterobacter cloacae)?
10 to 100 nM
